test: qHTS assay to identify small molecule antagonists of the constitutive androstane receptor (CAR) signaling pathway - cell viability counter screen (AID 1224837); settings: HepG2-CYP2B6-hCAR viability, CellTiter-Fluor, 23 h, co-treated with 50 nM CITCO; series mostly up to 92.4 µM; note: nearly all actives have a fitted effect of over 45% in size
Results filed as inconclusive are left out. Active and inactive are the calls of the source. Calls come from the whole dose curve; as a rule, active = well fitted cell-killing curve with a large enough effect in the repeat runs; inconclusive = weak or mixed curves, or effect the other way; inactive = flat fitted curve, though single readings scatter.
RESULT TYPE: outcome

Before answering, review these 5 worked examples.
COMPOUND	RESULT
[Cl-].[Cl-].[Cl-].[Fe+3]	inactive
C[C@]12CC[C@H]3[C@@H](CCC4=CC(=O)CC[C@@H]43)[C@@H]1CC[C@@H]2O	inactive
CC(C)(C#N)N=NC(C)(C)C#N	inactive
O=P(OCCCl)(OCCCl)OCCCl	inactive
CCOC(=O)c1ccccc1N	inactive

Please give outcome, item by item, for the list that follows.
1. CC1=C(C(=O)Nc2ccccc2)SCCO1
2. CC(C)CON=O

**Result**
1. inactive
2. inactive

Please give outcome, item by item, for the list that follows.
1. Oc1ccc(Cl)cc1Cl
2. COP(=O)(NC(C)=O)SC (stereo unspecified)
3. O=NN1CCOCC1
4. O=C1C(Cl)=C(Cl)C(=O)c2ccccc21
5. OCCOCCO
6. N#Cc1cccnc1
7. CCN(CC)C(=O)C(C)Oc1cccc2ccccc12 (stereo unspecified)

**Result**
inactive
inactive
inactive
inactive
inactive
inactive
inactive

Please give outcome, item by item, for the list that follows.
1. CCOP(=O)(OCC)OCC
2. COC(=O)Nc1nc2ccccc2[nH]1
3. CCC1(c2ccc(N)cc2)CCC(=O)NC1=O (stereo unspecified)
4. O=C1Nc2ccc(Cl)cc2C(c2ccccc2)=NC1O (stereo unspecified)

**Result**
1. inactive
2. inactive
3. inactive
4. inactive

Please give outcome, item by item, for the list that follows.
1. N#CCCCCC#N
2. C[C@]12CCC(=O)C=C1CC[C@@H]1[C@@H]2CC[C@@]2(C)[C@H]1CC[C@]2(C)O
3. Cc1ccc([N+](=O)[O-])cc1
4. COP(=S)(OC)Oc1ccc(Sc2ccc(OP(=S)(OC)OC)cc2)cc1
5. CCCCOC(=O)COC(=O)c1ccccc1C(=O)OCCCC
6. CCCCOCC1CO1 (stereo unspecified)

**Result**
1: inactive; 2: inactive; 3: inactive; 4: inactive; 5: inactive; 6: inactive

Please give outcome, item by item, for the list that follows.
1. CCOP(=S)(OCC)SCn1c(=O)oc2cc(Cl)ccc21
2. CC(C)COC(=O)c1ccccc1C(=O)OCC(C)C
3. CC1(C)C(C(=O)OC(C#N)c2cccc(Oc3ccccc3)c2)C1(C)C (stereo unspecified)
4. ClCC(Cl)CCl

**Result**
1: inactive; 2: inactive; 3: inactive; 4: inactive

Please give outcome, item by item, for the list that follows.
1. CCC/C=N/O
2. ClC(Cl)(Cl)c1ccccc1
3. C=C(C)C#N

**Result**
1. inactive
2. inactive
3. inactive
